Assay: soluble on expression in E. coli; label from the status in PepcDB or PDB records
measured quantity: soluble on expression in E. coli

Past entries and their recorded results:
[in] Need soluble on expression in E. coli, item `MGKEERAKWVNDEYAKAYEKMKSYGEQVKKADKPRVLYLKRSDLTLQGNDNFIKESMELAGADNIAAEAKSITMEEILKLDPEIILLSDFDKFLPQDLYENRIEGQDWSSVSAVVNKRVYKTPVGIYRWDAPGVETPLMMFWLGKMLQPEILEHHHHHH`
[out] not soluble

[in] Need soluble on expression in E. coli of `MGSDKIHHHHHHMATIKDIAARLGVSISTVSKGLNGASDISEELRQTVLDTAVEMGYSTKRSRKVENRKLALFIENMNYESIDEFGYDVVLGFKQNAFKHKWDVDIIPVTPQLQAEEKYDTYILKNGYCGAFLVGFALHDEWMQQLKNTTMPTVLFDNYIENNPNVAYVGTDSYEGIDMAVKHLHNLGHKKIAFINGSLFSLVSDQRQEAFENSMRDAGLEIYPELMGHGYYIPETAQYYVSNFIAAGATAILCGSDTIAKGVISECQLHGFNVPNDISVVGFDDVKFAAALTPPLTTIRQERNDLGRCAYIILNSLIHHIPISRTQLRPMLIERESTARVSTAHAAEE` , thanks.
[out] not soluble

[in] Can you share its soluble on expression in E. coli? I mean this sequence: `MRRLLLLVILFGCMSVINLAAGCNAQICTCPGGGYVTYGQYCPVNTPSYSAPPDAPPVDMYYFILDIKNNSYQLVDLKTKNFLTALDRSLSCDRSTQVCTVVSIREYLAVVVSEDNRLFIGKADAFYKGTGKKAEKAAIDDCKKGKEANGNGVMGDGIKGKKCRLIRLFSPNFKLENIETKQKYDLKVTGSL`
[out] not soluble

[in] State the recorded soluble on expression in E. coli for this entry: `MVDMKTTHTSLPFAGHTLHFVEFDPANFCEQDLLWLPHYAQLQHAGRKRKTEHLAGRIAAVYALREYGYKCVPAIGELRQPVWPAEVYGSISHCGATALAVVSRQPIGVDIEEIFSAQTATELTDNIITPAEHERLADCGLAFSLALTLAFSAKESAFKASEIQTDAGFLDYQIISWNKQQVIIHRENEMFAVHWQIKEKIVITLCQHD`
[out] not soluble

[in] Report soluble on expression in E. coli for `GPGSMAHSLTWKLLSPEQTHECLTAPDVPSIRSVLKKIDEACDGKLIGAAKYNEGKVMIVLDMLAHLILFCKSRSMSPEKVSTLVGIVIKIHEESMSGGYTRAKSYHLMRDLMIKHSVPRPPFSCGVFTVRDAQEIDEYMLRSYYRHYKMYFYAFVPRQVMNVRCLDVTHIHQVPPVGLPSLSTAVVESEWRTKVEEQRREAEEQAMQEGEIASDAYEEERMRNRLLADPHYSDGIREQLECIKKEVSSKAVGRLDEIEMRLQEIEKKVAESFARSDSKQGRRKK` please.
[out] soluble

[in] Need soluble on expression in E. coli of `MGSDKIHHHHHHMTNQTQSMALMVPQSSSSLEAYIHSAHNIPMLEANEEYELAKRLQETGDIQAAKQLIMSHLRFVIHVAKGYAGYGLPQADLIQEGNIGLMKAVKRFDPDVGVRLVSFAVHWIKAEIHEYVLKNWRIVKVATTKAQRKLFFNLRKAKKRLGWFSDEEVTMVAENLGVSKSDVTEMESRMAAQDPAFDLASDNDDDQDYAPVHYLEDHSSDIASQVENDNFEADNQTRLLAAIKTLDERSQHILQARWLDEEKTTLQELAATYQVSAERIRQLEKNAMNKLKGRMEM` , thanks.
[out] not soluble

[in] I have this sequence here, `MQKIKVQDAIGSVLMHDLTQIIPGKTKDARFRKGHVIKEEDIPTLLSMGKEHIFVWDQTPGLIHEDEAAERLAKAVAGPGLSFSETKEGKVNLIAEEDGLIYASEEGIYALNSLEYIILATLHNHRPVKKGQKIAGTRVVPLMIDENVVIEAEGIARRFEEPILQIRPLQSKKVGVVTTGSEVYHGRIQDKFGPVLQRKVAEWGSVLLGQTFADDDVEMIQERIREHIEQGAEMVLVTGGMSVDPDDLTPTAIKGLGGRVDHLWHSCSSRSHAVAGLPGLEHHHHHH` , and I need its recorded soluble on expression in E. coli.
[out] not soluble

[in] Fill in the blank: the reported soluble on expression in E. coli of `MIALGIEGTAWSLSIGVVDEEGVIALENDPYIPKEGGIHPREASQHHSERLPSLLSRVFEKVDKNSIDVVAFSQGPGMGPCLRVVATAARLLAIKLEKPLVGVNHCLAHVEVGRWQTGARKPVSLYVSGGNSQVIARRGNRYRVFGETLDIGIGNALDKLARHMGLKHPGGPKIEELAKKGQKYHFLPYVVKGMDFSFSGMVTAAQRLFDSGVRMEDVAFSFQETAFAMLTEVTERALAYLDLNEVLLVGGVAANKRLQEMLRIMCEDRGAKFYVPPKELAGDNGAMIAYTGLLMYKHGHQTPVEKSYVRPDFRIEDVEVNWD` is ____.
[out] soluble

[in] Requested field: soluble on expression in E. coli. Item: `MKKKADFLELFAVEKPIIGVIHLKGKTDQEIQERAKKEIQIYSEHGVDAILMENYYGDYVQLEKALQYVTSLDLPIPIGVNVLNVDPLGFHLANKYHLQFLQIDSVVGHVKPRDEASLQAFFDLYRAKTTAKLIGGVRFKYQPMLSEKSVEEDLKIAQQRCDAIAVTENATGEETSLEKIKLFRKQLPEFPLIVAAGLNDKSVKEQLAICDAAIVGSNFKDTRKDTGDIYAPYVDSFMKIVKELRGELEHHHHHH`
[out] soluble

[in] Using the record for `GAMEAIYAYEAQGDDEISIDPGDIITVIRGDDGSGWTYGECDGLKGLFPTSYCK` , report its soluble on expression in E. coli.
[out] soluble

Others:
[in] # query: soluble on expression in E. coli of entry `MSLRGQVHSVFVVVPRFNLTTLITMIETMRIGNYLSSERLFSWEVTSFDGLNLGASNGVRVHLDVEPDQTAPADQVFVLASWGGEHYQNKALASWLRKRARQGERICAVELGCYLVARAGLMDGKEATTHWSWINGFQEKFDQISVVEQLFTIDGRILTCAGGMAGVDLMLRLIEQSHGAGFSGEIADQMLHNPIRKGSSSQRRTMGRGTESILPLVRQAMTLIERNIEEPLTVPQIAAALDVSQRQLERQFKKHVGCTVVQFGLLRRLQNARVLLIATELSVREIATASGFNTLSHFSYSFSKFFGRRPSDYREAWPSNEAAPTWPGTLSDFLHAINSGDKREGHHHHHH`
[out] not soluble

[in] // soluble on expression in E. coli lookup, key: `MRPFILLALLVSVTVAFNIFRDEVVPEEQLLAVRRTTRDASDSSSDSDEKDDAKTTVTVSFGLSGSQAWPIFQFFSFALKTKKKSKFFRRSGYELRPRP`
[out] not soluble

Reference source for all entries: the DeepSol protein solubility set
